Target: mutant G12C K-RAS (Homo sapiens, UniProt P01116, G12C)
Construct: made in house; host or cells: E. coli BL21
Assay: covalent adduct formation (CAF) with mutant G12C K-RAS
Type: binding
Settings: Table 6; 10 μM, 1 h
observed.property: % CAF @ 10 μM,1 h (%)

Worked examples follow.
[
  {
    "compound": "C=CC(=O)N1C[C@H](C)N(c2nc(=O)n3c4c(c(-c5ccc(F)cc5F)c(Cl)cc24)O[C@@H](CCCN2CCN(C)CC2)C3)C[C@H]1C [Example 263]",
    "assay.system": "mutant G12C K-RAS (Homo sapiens, UniProt P01116, G12C)",
    "% CAF @ 10 μM,1 h, %": 41.6
  },
  {
    "compound": "C=CC(=O)N1C[C@H](C)N(c2nc(=O)n3c4c(c(-c5ccc(F)cc5F)c(Cl)cc24)OC[C@H]3CCCN2CCN(C)C(=O)C2)C[C@H]1C [Example 283]",
    "assay.system": "mutant G12C K-RAS (Homo sapiens, UniProt P01116, G12C)",
    "% CAF @ 10 μM,1 h, %": 92.4
  },
  {
    "compound": "C=CC(=O)N1C[C@H](C)N(c2nc(=O)n3c4c(c(-c5ccc(F)cc5F)c(Cl)cc24)OC[C@H]3CCCN2C[C@H]3C[C@@H]2CO3)C[C@H]1C [Example 315]",
    "assay.system": "mutant G12C K-RAS (Homo sapiens, UniProt P01116, G12C)",
    "% CAF @ 10 μM,1 h, %": 89.8
  }
]

A = C=CC(=O)N1C[C@H](C)N(c2nc(=O)n3c4c(c(-c5ccc(F)cc5F)c(Cl)cc24)OC[C@@H]3CCCO)C[C@H]1C [Example 250]
B = C=CC(=O)N1C[C@H](C)N(c2nc(=O)n3c4c(c(-c5ccc(F)cc5F)c(Cl)cc24)O[C@H](CCCN2CCN(C)CC2)C3)C[C@H]1C [Example 260]
Please tell me which of the two, A or B , has the higher reported % CAF @ 10 μM,1 h value. Let me know the label of the one you choose. A

----------
Target: mutant G12C K-RAS (Homo sapiens, UniProt P01116, G12C)
Construct: made in house; host or cells: E. coli BL21
Assay: covalent adduct formation (CAF) with mutant G12C K-RAS
Type: binding
Conditions: Table 6; 10 μM, 1 h
Protocol: Embodiments disclosed herein are further illustrated by the following examples in Tables 1-4 and the Examples hereinbelow. The Tables indicate the compound number, structure, the observed mass spectral molecular weight peak, and covalent adduct formation (CAF) with a mutant G12C K-RAS after 60 minutes at a concentration of 10 micromolar.
observed.property: % CAF @ 10 μM,1 h (%)

[
  {
    "molecule": "C=CC(=O)N1C[C@H](C)N(c2nc(=O)n3c4c(c(-c5c(O)cccc5F)c(Cl)cc24)OC[C@H]3Cn2cccn2)C[C@H]1C (atropisomer, axis not shown) [Example 246]",
    "unit.string": "%",
    "% CAF @ 10 μM,1 h": 97.4
  },
  {
    "molecule": "C=CC(=O)N1C[C@H](C)N(c2nc(=O)n3c4c(c(-c5cccc6ccccc56)c(Cl)cc24)OC[C@H]3Cn2ccnc2)C[C@H]1C (atropisomer, axis not shown) [Example 318]",
    "unit.string": "%",
    "% CAF @ 10 μM,1 h": 70.6
  }
]

a = C=CC(=O)N1C[C@H](C)N(c2nc(=O)n3c4c(c(-c5cc(Cl)ccc5F)c(Cl)cc24)OC[C@H]3CCCN2CCOCC2)C[C@H]1C
b = C=CC(=O)N1C[C@H](C)N(c2nc(=O)n3c4c(c(-c5c(O)cccc5F)c(Cl)cc24)OC[C@@H]3Cn2ccnc2)C[C@H]1C (atropisomer, axis not shown)
I would appreciate it if you could say which entry, a or b , has the lower % CAF @ 10 μM,1 h value. Let me know the label of the one you choose. b
(b: 2.3%, a: 73.8%)

1 = C=CC(=O)N1C[C@H](C)N(c2nc(=O)n3c4c(c(-c5c(O)cccc5F)c(Cl)cc24)OC[C@@H]3CN2CCC(F)(F)C2)C[C@H]1C [Example 220]
2 = C=CC(=O)N1C[C@H](C)N(c2nc(=O)n3c4c(c(-c5ccc(F)cc5F)c(Cl)cc24)OC[C@@H]3CN2CCOCC2)C[C@H]1C
I would appreciate it if you could say which entry, 1 or 2 , has the lower % CAF @ 10 μM,1 h value. Let me know the label of the one you choose. 1
(1: 0%, 2: 84.3%)
